MEASURED TARGET: GIPC3, Q8TF64
Sequence (Q8TF64 107-202): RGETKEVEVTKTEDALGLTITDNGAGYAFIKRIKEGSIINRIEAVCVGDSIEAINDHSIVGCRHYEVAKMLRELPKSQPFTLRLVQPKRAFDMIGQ
TEST PROTOCOL: holdup assay
Design: key: below the threshold = too weak to quantify, mostly under pKd 3.1 to 4
CONDITION CONTEXT: plain residues with an end cap or a label only (N-terminal biotin on a linker: ttds)

[
  {
    "BINDER": "SRPQRTQTQV [HPV67-E6, A4U7F2]",
    "pKd": "below the threshold"
  },
  {
    "BINDER": "STLTIFETAL [ABCC4, O15439]",
    "pKd": 4.21
  },
  {
    "BINDER": "SVWLRKETRV [CYSLTR2, Q9NS75]",
    "pKd": "below the threshold"
  }
]

Values compiled from paper PMC9482650.
